Cited source: patent US20020058247A1

assayed-target: T1, Full length recombinant HBcAg (rHBcAg) encompassing residues 1-183 (hepatitis B virus, UniProt P03146 1-183)
T1 construct: range 1-183; also called hepatitis B virus core antigen
T1 sequence (P03146 whole entry, the tested form may be a part): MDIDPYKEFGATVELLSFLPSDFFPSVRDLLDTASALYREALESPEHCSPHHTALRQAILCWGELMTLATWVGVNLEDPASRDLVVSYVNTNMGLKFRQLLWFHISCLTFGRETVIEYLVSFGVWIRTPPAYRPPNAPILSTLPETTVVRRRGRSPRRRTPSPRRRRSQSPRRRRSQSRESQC
assay-summary: EIA, support-bound peptide, HBcAg 2.5 ug/ml
So basically, if OD comes in under 0.2 OD it's Condition met, and if it's 0.2 OD or more it's Condition not met.

YNMNWVKQSHGKSLEWIGNI (also called Peptide # 27) [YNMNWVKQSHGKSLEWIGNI (SEQ. ID. No. 30)] ... Condition met
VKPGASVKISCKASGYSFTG (also called Peptide # 25) [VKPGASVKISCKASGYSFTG (SEQ. ID. No. 28)] ... Condition met
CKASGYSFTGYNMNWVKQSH (also called Peptide # 26) [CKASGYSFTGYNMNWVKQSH (SEQ. ID. No. 29)] ... Condition met
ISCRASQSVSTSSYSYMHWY [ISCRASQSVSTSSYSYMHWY (SEQ. ID. No. 17)] ... Condition not met

Next item in the queue.
Prompt: Is OD of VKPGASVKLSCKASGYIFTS (also called Peptide # 2; Pept. #2) [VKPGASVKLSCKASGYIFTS (SEQ. ID. No. 5)] strictly below 0.2 OD?
Completion: Condition not met
